Just for reference, patent US20230391826A1 is where these values come from.

Entries and their N (binding stoichiometry)
target: T1, EphA2 ligand binding domain (EphA2 LBD), residues 28-200 (UniProt P29317 28-200); assay: ITC, soluble EphA2 LBD and peptide
T1 construct: range 28-200; Expressed in E. coli; also called soluble EphA2 LBD; soluble monomeric EphA2 LBD
T1 sequence (P29317 other isoform, or with tags, fused parts or gaps limits assumed, form in doubt): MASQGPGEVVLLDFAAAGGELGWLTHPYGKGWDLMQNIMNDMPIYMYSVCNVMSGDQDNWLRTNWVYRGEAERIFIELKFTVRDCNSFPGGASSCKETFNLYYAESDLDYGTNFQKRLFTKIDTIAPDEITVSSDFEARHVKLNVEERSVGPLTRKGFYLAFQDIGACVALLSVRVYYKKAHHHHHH
Where no end group is shown, it is not given here. [ ]: non-standard residue; d: D form. βAla = NCCC(=O)O
API note: the answer field is a bare number with no unit suffix.

[βAla]WLAYPDSVPYRPKC (also: homodimer, disulfide at 15, other end not in the chain, C-terminally disulfide-linked homodimer made from monomer (19*); also called dimer (2); dimeric peptide (2)) [βA-WLA-YRPKC dimer (C-ter)] | 2
CGAWLAYPDSVPYR (also: homodimer: N-terminal Cys of two chains joined by disulfide, N-terminally disulfide-linked homodimer made from monomer (15*); also called dimer (4)) [CGA-WLA-YR dimer (N-ter)] | 2
CGAWLAYPDSVPYRPK (also: N-terminally disulfide-linked homodimer, disulfide at 1, other end not in the chain, also called dimer (5); dimeric peptide (5)) [CGA-WLA-YRPK dimer (N-ter)] | 2.2

Q. // lookup N (binding stoichiometry) for [βAla]WLAYPDSVPYGSGC (also: homodimer, disulfide at 15, other end not in the chain, C-terminally disulfide-linked homodimer made from monomer (9*); also called dimer (1); dimeric peptide (1)) [βA-WLA-YGSGC dimer (C-ter)]
A. 1.7
